Molecular target: HPK1 (Homo sapiens, UniProt Q92918)
Construct: A HiBiT tag was introduced by CRISPR on the N terminus of HPK1 in Jurkat cells; host or cells: Jurkat cells (ATCC TIB-152), monoclonal line with CRISPR knock-in of HiBiT at the endogenous HPK1 locus
Sequence (Q92918 whole entry): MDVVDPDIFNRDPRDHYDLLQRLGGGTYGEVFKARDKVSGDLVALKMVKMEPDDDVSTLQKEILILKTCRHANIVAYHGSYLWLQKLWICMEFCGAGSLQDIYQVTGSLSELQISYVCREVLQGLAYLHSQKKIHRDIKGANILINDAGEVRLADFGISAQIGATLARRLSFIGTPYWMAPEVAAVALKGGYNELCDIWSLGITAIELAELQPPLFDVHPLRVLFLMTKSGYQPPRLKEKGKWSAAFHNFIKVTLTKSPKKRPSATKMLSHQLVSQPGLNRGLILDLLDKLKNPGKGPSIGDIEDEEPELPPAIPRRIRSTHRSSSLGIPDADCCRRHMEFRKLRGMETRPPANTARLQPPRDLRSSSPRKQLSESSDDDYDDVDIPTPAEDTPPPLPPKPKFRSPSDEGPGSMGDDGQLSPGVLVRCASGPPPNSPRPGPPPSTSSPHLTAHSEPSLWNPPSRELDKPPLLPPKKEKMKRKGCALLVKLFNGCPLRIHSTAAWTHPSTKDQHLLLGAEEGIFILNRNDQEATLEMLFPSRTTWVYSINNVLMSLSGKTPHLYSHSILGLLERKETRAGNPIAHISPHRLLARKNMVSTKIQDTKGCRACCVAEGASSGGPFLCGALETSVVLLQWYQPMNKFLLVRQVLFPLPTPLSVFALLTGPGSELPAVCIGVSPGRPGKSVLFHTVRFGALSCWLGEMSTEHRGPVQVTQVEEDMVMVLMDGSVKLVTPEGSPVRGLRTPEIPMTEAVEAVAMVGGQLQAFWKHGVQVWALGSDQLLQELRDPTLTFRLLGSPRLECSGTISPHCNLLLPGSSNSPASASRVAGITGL
Test: HPK1 Cellular HiBit Degradation Assay
Format: cell-based
Settings: Jurkat, HiBiT HPK1 Jurkat cells, 24 hrs; maximum degradation vs DMSO vehicle control; read-out: Dmax Category
Assignment: determine reported Dmax for the given molecules.

Given the entry CC(C)n1cnc2cc(-c3ccc4c(c3)N([C@H]3C[C@@H](N5CCCCC5)C3)C(=O)C43CCN(C(=O)[C@@H]4CCN(C(=O)[C@H]5CC[C@H](Oc6ccc(N7CCC(=O)NC7=O)cn6)CC5)C4)CC3)nc(NC3CC3)c21 , report its measured Dmax.
70 to 85%

Given the entry CC(C)n1cnc2cc(-c3ccc4c(c3)N([C@H]3C[C@@H](N5CCCCC5)C3)C(=O)C43CCN(C(=O)[C@@H]4CCN(C(=O)[C@H]5CC[C@H](Nc6cccc7c6C(=O)N(C6CCC(=O)NC6=O)C7=O)CC5)C4)CC3)nc(Nc3ccncc3F)c21 (mixture of isomers) , report its measured Dmax.
50 to 70%

###

Target: HPK1 (Homo sapiens, UniProt Q92918)
Construct: A HiBiT tag was introduced by CRISPR on the N terminus of HPK1 in Jurkat cells; host or cells: Jurkat cells (ATCC TIB-152), monoclonal line with CRISPR knock-in of HiBiT at the endogenous HPK1 locus
Assay: HPK1 Cellular HiBit Degradation Assay
Assay type: cell-based
Details: HiBiT HPK1 Jurkat cells, 24 hrs; concentration at which 50% of HPK1 was remaining; read-out: DC50 Category
Assignment: determine reported DC50 for the given molecules.

Given the entry CC(C)n1cnc2cc(-c3ccc4c(c3)N([C@H]3C[C@@H](N5CCCCC5)C3)C(=O)C43CCN(C(=O)[C@@H]4CCN(C(=O)[C@H]5CC[C@H](Nc6ccc(C7CCC(=O)NC7=O)cc6)CC5)C4)CC3)nc(Nc3ccccc3F)c21 (mixture of isomers) , report its measured DC50.
< 100 nM

Given the entry CC(C)n1cnc2cc(-c3ccc4c(c3)N([C@H]3C[C@@H](N5CCCCC5)C3)C(=O)C43CCN(C(=O)c4cc(C(=O)N5CCN(c6ccc7c(c6)C(=O)N(C6CCC(=O)NC6=O)C7=O)CC5)n(C)n4)CC3)nc(Nc3ccccc3F)c21 (mixture of isomers) , report its measured DC50.
100 to 500 nM

Given the entry CC(C)n1cnc2cc(-c3ccc4c(c3)N([C@H]3C[C@@H](N5CCCCC5)C3)C(=O)C43CCN(C(=O)C4CCN(C(=O)C5CCN(c6ccc(C7CCC(=O)NC7=O)cc6)CC5)CC4)CC3)nc(Nc3ccncc3F)c21 (stereo partly shown) , report its measured DC50.
< 100 nM

Given the entry CC(C)n1cnc2cc(-c3ccc4c(c3)N([C@H]3C[C@@H](N5CCCCC5)C3)C(=O)C43CCN(C(=O)N4CCC(C(=O)N5CCN(c6ccc(C7CCC(=O)NC7=O)cn6)CC5)CC4)CC3)nc(NC3CC3)c21 (stereo partly shown) , report its measured DC50.
100 to 500 nM

###

Biological target: HPK1 (Homo sapiens, UniProt Q92918)
Construct: A HiBiT tag was introduced by CRISPR on the N terminus of HPK1 in Jurkat cells; host or cells: Jurkat cells (ATCC TIB-152), monoclonal line with CRISPR knock-in of HiBiT at the endogenous HPK1 locus
Experiment: HPK1 Cellular HiBit Degradation Assay
Assay type: cell-based
Conditions: HiBiT HPK1 Jurkat cells, 24 hrs; concentration at which 50% of HPK1 was remaining; read-out: DC50 Category
endpoint label: DC50

Fill in the recorded DC50 for this compound, with HPK1 (Homo sapiens, UniProt Q92918) as test system: CC(C)n1cnc2cc(-c3ccc4c(c3)N([C@H]3C[C@@H](N5CCCCC5)C3)C(=O)C43CCN(C(=O)C4(C)CCN(C(=O)C5CCN(c6ccc(C7CCC(=O)NC7=O)cc6)CC5)CC4)CC3)nc(NC3CCOCC3)c21 (mixture of isomers) [Example 196]
< 100 nM

Fill in the recorded DC50 for this compound, with HPK1 (Homo sapiens, UniProt Q92918) as test system: CC(C)n1cnc2cc(-c3ccc4c(c3)N([C@H]3C[C@@H](N5CCCCC5)C3)C(=O)C43CCN(C(=O)[C@H]4CCCN(C(=O)CC5CCN(c6ccc(C7CCC(=O)NC7=O)cn6)CC5)C4)CC3)nc(NC3CC3)c21 (mixture of isomers) [Example 231]
100 to 500 nM

Fill in the recorded DC50 for this compound, with HPK1 (Homo sapiens, UniProt Q92918) as test system: CC(C(=O)N1CCC2(CC1)C(=O)N([C@H]1C[C@@H](N3CCCCC3)C1)c1cc(-c3cc4ncn(C(C)C)c4c(NC4CC4)n3)ccc12)C1CCN(C(=O)C2CCN(c3ccc(C4CCC(=O)NC4=O)cn3)CC2)CC1 (mixture of isomers) [Example 187]
< 100 nM

Fill in the recorded DC50 for this compound, with HPK1 (Homo sapiens, UniProt Q92918) as test system: CC(C)n1cnc2cc(-c3ccc4c(c3)N([C@H]3C[C@@H](N5CCCCC5)C3)C(=O)C43CCN(C(=O)C4CCN(C(=O)C5CCN(c6ccc(C7CCC(=O)NC7=O)cc6)CC5)CC4)CC3)nc(Nc3ccccc3F)c21 (mixture of isomers) [Example 67]
< 100 nM

###

Target: HPK1 (Homo sapiens, UniProt Q92918)
Construct: A HiBiT tag was introduced by CRISPR on the N terminus of HPK1 in Jurkat cells; host or cells: Jurkat cells (ATCC TIB-152), monoclonal line with CRISPR knock-in of HiBiT at the endogenous HPK1 locus
Assay: HPK1 Cellular HiBit Degradation Assay
Format: cell-based
Conditions: Jurkat, HiBiT HPK1 Jurkat cells, 24 hrs; maximum degradation vs DMSO vehicle control; read-out: Dmax Category
Assignment: determine reported Dmax for the given molecules.

Given the entry CC(C)n1cnc2cc(-c3ccc4c(c3)N([C@H]3C[C@@H](N5CCCCC5)C3)C(=O)C43CCN(C(=O)C4CCN(C(=O)[C@H]5CC[C@H](Nc6ccc(C7CCC(=O)NC7=O)cc6)CC5)CC4)CC3)nc(NC3CC3)c21 (mixture of isomers) [Example 53] , report its measured Dmax.
50 to 70%

Given the entry CC(C)n1cnc2cc(-c3ccc4c(c3)N([C@H]3C[C@@H](N5CCC[C@@H](F)C5)C3)C(=O)C43CCN(C(=O)C4(C)CCN(C(=O)CC5CCN(c6ccc(C7CCC(=O)NC7=O)cn6)CC5)CC4)CC3)nc(NC3CC3)c21 (mixture of isomers) [Example 205] , report its measured Dmax.
50 to 70%

Given the entry CC(C)n1cnc2cc(-c3ccc4c(c3)N([C@H]3C[C@@H](N5CCCCC5)C3)C(=O)C43CCN(C(=O)C4CN(C(=O)C5CCN(c6ccc(C7CCC(=O)NC7=O)cn6)CC5)C4)CC3)nc(Nc3ccccc3F)c21 (mixture of isomers) [Example 242] , report its measured Dmax.
> 85%

Given the entry CC(C)n1cnc2cc(-c3ccc4c(c3)N([C@H]3C[C@@H](N5CCCCC5)C3)C(=O)C43CCN(C(=O)[C@@H]4CCN(C(=O)[C@H]5CC[C@H](Oc6ccc(N7CCC(=O)NC7=O)cn6)CC5)C4)CC3)nc(Nc3ccncc3F)c21 [Example 22] , report its measured Dmax.
70 to 85%

Given the entry CC(C)n1cnc2cc(-c3ccc4c(c3)N([C@H]3C[C@@H](N5C6CCC5COC6)C3)C(=O)C43CCN(C(=O)C4(C)CCN(C(=O)CC5CCN(c6ccc(C7CCC(=O)NC7=O)cn6)CC5)CC4)CC3)nc(NC3CC3)c21 (mixture of isomers) [Example 222] , report its measured Dmax.
50 to 70%

Given the entry CC(C)n1cnc2cc(-c3ccc4c(c3)N([C@H]3C[C@@H](N5CCCCC5)C3)C(=O)C43CCN(C(=O)C4(F)CCCN(C(=O)C5CCN(c6ccc(C7CCC(=O)NC7=O)cn6)CC5)C4)CC3)nc(NC3CC3)c21 (mixture of isomers) [Example 280] , report its measured Dmax.
70 to 85%

Given the entry CC(C)n1cnc2cc(-c3ccc4c(c3)N([C@H]3C[C@@H](N5CCCCC5)C3)C(=O)C43CCN(C(=O)c4ccc(C(=O)N5CCN(c6ccc(C7CCC(=O)NC7=O)cc6)CC5)cc4)CC3)nc(Nc3ccccc3F)c21 (mixture of isomers) [Example 40] , report its measured Dmax.
50 to 70%

Given the entry CC(C)n1cnc2cc(-c3ccc4c(c3)N([C@H]3C[C@@H](N5CCCCC5)C3)C(=O)C43CCN(C(=O)[C@@H]4CCN(C(=O)[C@H]5CC[C@H](Nc6cc(C7CCC(=O)NC7=O)ccn6)CC5)C4)CC3)nc(Nc3ccccc3F)c21 (mixture of isomers) [Example 1] , report its measured Dmax.
70 to 85%

Given the entry CC(C)n1cnc2cc(-c3ccc4c(c3)N([C@H]3C[C@@H](N5CCCCC5)C3)C(=O)C43CCN(C(=O)C4(C)CCN(C(=O)C5CCN(c6ccc(C7CCC(=O)NC7=O)cc6)CC5)CC4)CC3)nc(NC3CCOCC3)c21 (mixture of isomers) [Example 196] , report its measured Dmax.
70 to 85%

Given the entry CC1CN(C(=O)C2CCN(c3ccc(C4CCC(=O)NC4=O)cn3)CC2)CCC1C(=O)N1CCC2(CC1)C(=O)N([C@H]1C[C@@H](N3CCCCC3)C1)c1cc(-c3cc4ncn(C(C)C)c4c(NC4CC4)n3)ccc12 (mixture of isomers) [Example 253] , report its measured Dmax.
70 to 85%

Given the entry CC(C)n1cnc2cc(-c3ccc4c(c3)N([C@H]3C[C@@H](N5CCCCC5)C3)C(=O)C43CCN(C(=O)C4(C)CCN(C(=O)C[C@H]5CCN(c6ccc(C7CCC(=O)NC7=O)cn6)C5)CC4)CC3)nc(NC3CC3)c21 (stereo partly shown) [Example 154] , report its measured Dmax.
50 to 70%

Given the entry CC(C)n1cnc2cc(-c3ccc4c(c3)N([C@H]3C[C@@H](N5CCCCC5)C3)C(=O)C43CCN(C(=O)[C@@H]4C[C@@H]5C[C@H]4CN5C(=O)C4CCN(c5ccc(C6CCC(=O)NC6=O)cn5)CC4)CC3)nc(NC3CC3)c21 (mixture of isomers) [Example 265] , report its measured Dmax.
70 to 85%

Given the entry CC(C)n1cnc2cc(-c3ccc4c(c3)N([C@H]3C[C@@H](N5CCCCC5)C3)C(=O)C43CCN(C(=O)C4CCN(C(=O)C5CCN(c6ccc(N7CCC(=O)NC7=O)cn6)CC5)CC4)CC3)nc(Nc3ccncc3F)c21 [Example 81] , report its measured Dmax.
50 to 70%

Given the entry CC(C)n1cnc2cc(-c3ccc4c(c3)N([C@H]3C[C@@H](N5CCCCC5)C3)C(=O)C43CCN(C(=O)C4CCC5(CCN(C(=O)C6CCN(c7ccc(C8CCC(=O)NC8=O)cn7)CC6)CC5)C4)CC3)nc(NC3CC3)c21 (mixture of isomers) [Example 294] , report its measured Dmax.
70 to 85%

Given the entry CC(C)n1cnc2cc(-c3ccc4c(c3)N([C@H]3C[C@@H](N5CCCCC5)C3)C(=O)C43CCN(C(=O)C4(C)CCN(C(=O)C5CCN(c6ccc(C7CCC(=O)NC7=O)cn6)CC5)CC4)CC3)nc(NC3CC4(COC4)C3)c21 (stereo partly shown) [Example 177] , report its measured Dmax.
70 to 85%

Given the entry CC(C)n1cnc2cc(-c3ccc4c(c3)N([C@H]3C[C@@H](N5CCCCC5)C3)C(=O)C43CCN(C(=O)C4(C)CCN(C(=O)C5CCN(c6ccc(C7CCC(=O)NC7=O)cc6)CC5)CC4)CC3)nc(Nc3ccncc3F)c21 (mixture of isomers) [Example 112] , report its measured Dmax.
70 to 85%
